System: TNF-α production, THP-1 human monocyte cell line
measurement-protocol: Inhibitory activity against TNF-α production using human cell lines (LPS-stimulated THP-1)
Type: cell-based
experimental-setup: 1.5 h, THP-1 cells, LPS stimulation, 90 minutes
pIC50: −log10 of the molar value.
Each entry below lists one item and its recorded pIC50 value.
readout: pIC50

| molecule | assayed-system | measurement |
| --- | --- | --- |
| Cc1cc(C)c(-n2cc(C(=NOC3CCN(C)CC3)c3ccc(F)cc3F)ccc2=O)c(C)c1 [Example 52(9)] | TNF-α production, THP-1 human monocyte cell line | 8.15 |
| Cc1cc(F)cc(C)c1-n1cc(/C(=N/OC2CCN(C)CC2)c2ccc(F)cc2F)ccc1=O [Example 48] | TNF-α production, THP-1 human monocyte cell line | 8.62 |
